Recorded IC50 values for a group of molecules are listed next.
target_or_system: human TASK-1 (Homo sapiens)
Sequence (O14649 whole entry): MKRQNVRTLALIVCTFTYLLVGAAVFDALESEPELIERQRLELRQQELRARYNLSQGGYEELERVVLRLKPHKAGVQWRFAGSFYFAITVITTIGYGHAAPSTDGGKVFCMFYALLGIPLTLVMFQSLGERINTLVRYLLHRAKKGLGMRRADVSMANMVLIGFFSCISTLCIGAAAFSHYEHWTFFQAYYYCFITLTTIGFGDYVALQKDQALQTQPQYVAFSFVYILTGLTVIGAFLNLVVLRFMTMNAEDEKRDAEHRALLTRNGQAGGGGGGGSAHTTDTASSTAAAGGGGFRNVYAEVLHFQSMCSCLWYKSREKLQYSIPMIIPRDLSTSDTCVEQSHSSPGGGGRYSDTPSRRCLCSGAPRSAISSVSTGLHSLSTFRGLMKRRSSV
procedure_details: Inhibition of recombinant TASK-1 in stably transfected CHO cells, KCl-induced depolarization, voltage-sensitive dye (B-2)
Format: cell-based
Parameters: expressed in transfected cells; host or cells: stably transfected CHO cells
experimental_context: depolarization induced by 40 mM potassium chloride, some mean values from multiple determinations
Value expressed in nM; do not type the unit.

Worked examples follow.
molecule | val
CCCCCNC(=O)N1C2CCC1CN(Cc1c(-c3ccc(Cl)cc3)nc3ccccn13)C2 | 760
CC(C)N(C(=O)N1C2CCC1CN(Cc1c(-c3ccc(Cl)cc3)nc3ccccn13)C2)C(C)C | 91
COc1ccc(C)c(C(=O)N2CC3CCC2CN3Cc2c(-c3ccc(Cl)cc3)nc3ccccn23)n1 (single isomer, unassigned) | 75

Next up:
If you can, please state the reported IC50 value of CCCOC(=O)N1C2COCC1CN(Cc1c(-c3ccc(Cl)cc3)nc3ccccn13)C2 .
150
